Measured pKi accompanies every entry in the list below.
Molecular target: Cholecystokinin receptor type A (Cavia porcellus)
Sequence (Q63931 whole entry): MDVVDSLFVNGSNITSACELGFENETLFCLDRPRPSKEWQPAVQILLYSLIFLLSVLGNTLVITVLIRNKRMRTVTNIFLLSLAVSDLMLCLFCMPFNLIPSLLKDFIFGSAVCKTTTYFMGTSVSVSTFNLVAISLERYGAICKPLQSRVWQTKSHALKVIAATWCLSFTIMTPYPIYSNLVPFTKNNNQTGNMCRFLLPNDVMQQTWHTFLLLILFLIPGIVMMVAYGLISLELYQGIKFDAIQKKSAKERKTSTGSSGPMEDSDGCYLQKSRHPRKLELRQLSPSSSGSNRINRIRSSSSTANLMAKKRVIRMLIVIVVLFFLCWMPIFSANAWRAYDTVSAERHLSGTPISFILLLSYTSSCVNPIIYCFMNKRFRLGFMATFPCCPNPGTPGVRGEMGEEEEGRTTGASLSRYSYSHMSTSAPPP
Notebook: values listed as pKi are -log10 of the concentration (mol/L).

Guide cases for pKi, answers given:
[[record]]
compound = "Cc1cccc(NC(=O)N[C@@H]2N=C(c3ccccc3)c3ccccc3N(C)C2=O)c1 [L-365260]"
reading = 6.50

[[record]]
compound = "O=C(O)c1cc(NC(=O)[C@H](Cc2ccc(I)cc2)NC(=O)c2cc3cc[nH]c3cc2C(=O)NCC23CC4CC(CC(C4)C2)C3)cc(C(=O)O)c1"
reading = 5.70


Please find the next compound below.
Quick check: pKi on Cholecystokinin receptor type A (Cavia porcellus), item O=C(O)c1cccc(NC(=O)c2nc(-c3ccccc3)[nH]c2CC23CC4CC(CC(C4)C2)C3)c1 ? 5.90

These data points were gathered from ChEMBL document CHEMBL1140745.
